Target: biotinylated recombinant human CLL-1 extracellular domain protein, isoform with glutamine at amino acid position 244 (human) (UniProt Q5QGZ9)
Sequence (Q5QGZ9 65-265): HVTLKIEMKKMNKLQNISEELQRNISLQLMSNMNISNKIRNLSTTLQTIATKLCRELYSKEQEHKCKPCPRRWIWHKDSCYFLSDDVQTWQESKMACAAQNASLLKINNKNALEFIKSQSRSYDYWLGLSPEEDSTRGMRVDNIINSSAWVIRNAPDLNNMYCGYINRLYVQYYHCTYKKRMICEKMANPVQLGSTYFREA
Assay Summary: BLItz, 1:1 model (Q244 per FIG. 12B)
Value Kind: Kd (nM)
Give a bare numeral; the unit nM is implied.

1) Anti-CLL-1 Binder Clone 41 (scFv, not shown: small tags and cut ends) scFv: QSVLTQPASVSGSLGQSITISCTGTSRDVGGYNFVSWYQQHPGKAPKLIIFDVTTRPSGLSDRFSASKSGNTASLTISGLQAEDEADYFCGSYTASDTMLFGGGTKLTVLGGGGSGGGGSGGGGSQVQLLESGGGVVQPGRSLRLSCAASGFTFDDYAMHWVRQAPGKGLEWVSGISWNSGSIGYADSVKGRFTVSRDNSKNTLYQQMNGLRAEDTAVYYCAREGRPTAFDYWGQGTTVTVSS :: 306

Looking up Anti-CLL-1 Binder Clone 20 (VHH, not shown: small tags and cut ends) VHH: QVQLVQSGGGLVQPGGSLRLSCAASDFSFSYYEMSWVRQAPGKGLEWVSTISGSGDSTYYADSVKGRFTISRDNTKNTLYLQMNTLRAEDTATYYCMTDGETWGTHRYTVYWGQGALVTVSS , I found its Kd recorded as 33

Looking up Anti-CLL-1 Binder Clone 6 (scFv, not shown: small tags and cut ends) scFv: QSVLTQPPSVSAAPGQKVSIFCSGGSSNIGKNYVSWYQQLPGTAPKLLIYENQHRPSGIPDRFSGSKSGTSATLGITGLQTGDEADYYCATWDDSLSAGVFGGGTELTVLGGGGSGGGGSGGGGSQLVQSGAEVRKPGESLKISCKGSGYSFTSYWIGWVRQMPGKGLEWMGFIYPGDSDTRYSPSFQGQVTISADKSISTAYLQRSSLKASDTAMYYCARLGGYSGYDSEVFYLDYWGQGTTVTVSS , I found its Kd recorded as 11

Looking up Anti-CLL-1 Binder Clone 2 (scFv, not shown: small tags and cut ends) scFv: QSVLTQPLSVSVALGQTARITCGGNNIGSKNVHWYQQKAGQAPVLVIQRDSNRPSGIPERFSGSNSGNTATLTISRAQAGDEADYFCQVWDSNTYVFGTGTKLTVLGGGGSGGGGSGGGGSEVQLVESGGGLVKPGGSLRLSCAASGFTFSDYYMSWIRQAPGKGLEWVSYISSSGSTIYYADSVKGRFTISRDNAKNSLYLQMNSLRDEDTAVYYCARQSAEIVGAFDHWGQGTMVTVSS , I found its Kd recorded as 70
